system: ER (Homo sapiens, UniProt P03372)
Construct: T47D breast cancer cells were subcultured in cell culture medium; endogenous in cells; host or cells: T47D breast cancer cells
Sequence (P03372 1-595): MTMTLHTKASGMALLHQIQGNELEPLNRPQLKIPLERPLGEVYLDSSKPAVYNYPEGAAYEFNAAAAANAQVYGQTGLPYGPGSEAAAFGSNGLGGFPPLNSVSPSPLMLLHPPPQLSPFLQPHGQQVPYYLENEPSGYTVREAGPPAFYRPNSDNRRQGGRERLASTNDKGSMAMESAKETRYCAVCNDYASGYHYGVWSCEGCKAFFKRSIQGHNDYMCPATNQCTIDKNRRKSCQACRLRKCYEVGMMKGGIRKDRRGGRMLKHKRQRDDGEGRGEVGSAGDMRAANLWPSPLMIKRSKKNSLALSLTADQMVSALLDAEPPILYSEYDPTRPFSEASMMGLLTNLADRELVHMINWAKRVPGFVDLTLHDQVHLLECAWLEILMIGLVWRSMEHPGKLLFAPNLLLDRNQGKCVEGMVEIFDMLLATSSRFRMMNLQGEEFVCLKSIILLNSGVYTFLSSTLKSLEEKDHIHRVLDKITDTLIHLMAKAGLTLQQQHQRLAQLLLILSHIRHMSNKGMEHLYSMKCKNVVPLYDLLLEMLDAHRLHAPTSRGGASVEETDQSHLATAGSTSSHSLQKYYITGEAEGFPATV
procedure.summary: Degradation activities on ER (ELISA) in T47D breast cancer cells
Type: cell-based
assay.setup: T47D cells, 24 h, ELISA; concentration required to degrade 50% of the target protein
Measured DC50 values are reported for all entries that follow.

O=C1CCC(N2Cc3cc(N4CC5(CCN(CC6CCN(c7c(F)cc([C@@H]8c9ccc(OCc%10ccccc%10)cc9OC[C@@H]8c8ccccc8F)cc7F)CC6)CC5)C4)ccc3C2=O)C(=O)N1 (some centres unmarked) [Example 51]: > 0.1 µM

-- ask Report DC50 for O=C1CCC(N2Cc3cc(N4CC5(CCN(CC6CCN(c7ccc(C8=C(c9c(F)cccc9F)COc9cc(O)ccc98)cc7F)CC6)CC5)C4)ccc3C2=O)C(=O)N1 (centres unmarked) [Example 76] please.
-- reply < 0.01 µM

-- ask // query: O=C1CCC(N2Cc3cc(N4CC5(CCN(CC6CCN(c7ccc([C@H]8c9ccc(O)cc9OC[C@H]8c8ccccc8F)cc7)CC6)CC5)C4)ccc3C2=O)C(=O)N1 (some centres unmarked) [Example 34]
-- reply > 0.1 µM

-- ask Follow-up item: O=C1CCC(N2Cc3cc(N4CC5(CCN(CC6CCN(c7c(F)cc([C@@H]8c9ccc(O)cc9OC[C@@H]8c8c(F)cccc8F)cc7F)CC6)CC5)C4)ccc3C2=O)C(=O)N1 (some centres unmarked) [Example 37]
-- reply < 0.01 µM

-- ask // same read-out, input: O=C1CCC(N2Cc3cc(N4CC5(CCN(CC6CCN(c7ccc([C@@H]8c9ccc(O)cc9OC[C@@H]8c8cccc(F)c8F)cc7)CC6)CC5)C4)ccc3C2=O)C(=O)N1 (relative stereo) [Example 36]
-- reply < 0.01 µM

-- ask Now consider O=C1CCC(N2Cc3cc(N4CC5(CCN(CC6CCN(c7ccc([C@@H]8c9ccc(O)cc9OC[C@@H]8c8ccccc8F)cc7)CC6)CC5)C4)ccc3C2=O)C(=O)N1 (some centres unmarked) [Example 30] and answer again.
-- reply < 0.01 µM

-- ask Then this compound: O=C1CCC(N2Cc3cc(N4CC5(CCN(CC6CCN(c7c(F)cc([C@@H]8c9ccc(O)cc9OC[C@@H]8c8cccc(F)c8F)cc7F)CC6)CC5)C4)ccc3C2=O)C(=O)N1 (some centres unmarked) [Example 48]
-- reply < 0.01 µM

-- ask And what about the compound O=C1CCC(N2C(=O)c3ccc(N4CC5(CCN(CC6CCN(c7ccc([C@@H]8c9ccc(O)cc9OC[C@@H]8c8ccccc8)cc7)CC6)CC5)C4)cc3C2=O)C(=O)N1 (some centres unmarked) [Example 81] ?
-- reply 0.01 to 0.05 µM

-- ask Moving on to the next compound: O=C1CCC(N2Cc3cc(N4CC5(CCN(CC6CN(c7ccc(C8c9ccc(O)cc9OC[C@@H]8c8ccccc8F)cc7)C6)CC5)C4)ccc3C2=O)C(=O)N1 (some centres unmarked) [Example 5]
-- reply > 0.1 µM

-- ask What about this compound? O=C1CCC(N2Cc3cc(N4CCC5(CC4)CN(CC4CCN(c6ccc([C@@H]7c8ccc(O)cc8CC[C@@H]7c7ccccc7)cc6)CC4)C5)ccc3C2=O)C(=O)N1 (some centres unmarked) [Example 27]
-- reply > 0.1 µM

-- ask Likewise for O=C1CCC(N2Cc3cc(N4CC5(CCN(CC6CCN(c7ccc(C8=C(c9c(F)cccc9F)COc9cc(O)ccc98)cc7)CC6)CC5)C4)ccc3C2=O)C(=O)N1 (centres unmarked) [Example 18] ?
-- reply < 0.01 µM
